Reference for the values: ChEMBL document CHEMBL1155807

test system: J774; experiment: Selectivity index, ratio of IC50 for mouse COX1 in mouse J774 cells to IC50 for mouse COX2 in LPS-stimulated mouse J774 cells; format: cell-based
Measured endpoint: Ratio IC50

Reference set (8 entries):
{"columns": ["Compound structure", "Test target", "Ratio IC50"],
 "data": [
  ["CCCOCCc1cc(-c2ccc(S(C)(=O)=O)cc2)n(-c2ccc(C(F)(F)F)cc2)c1C", "J774", "> 909"],
  ["COCCc1cc(-c2ccc(S(C)(=O)=O)cc2)n(-c2ccc(C(F)(F)F)cc2)c1C", "J774", "> 2040"],
  ["CCOC(=O)Cc1cc(-c2ccc(S(C)(=O)=O)cc2)n(-c2ccc(C)cc2)c1C", "J774", "> 208"],
  ["CCCOCCc1cc(-c2ccc(S(C)(=O)=O)cc2)n(-c2ccccc2)c1C", "J774", "> 5560"],
  ["CCOCCc1cc(-c2ccc(S(C)(=O)=O)cc2)n(-c2ccc(C(F)(F)F)cc2)c1C", "J774", "> 1180"],
  ["CCOC(=O)Cc1cc(-c2ccc(S(C)(=O)=O)cc2)n(-c2ccccc2)c1C", "J774", "> 2500"],
  ["COCCc1cc(-c2ccc(S(C)(=O)=O)cc2)n(-c2ccc(F)cc2)c1C", "J774", "> 5560"],
  ["CCCOCCc1cc(-c2ccc(S(C)(=O)=O)cc2)n(-c2ccc(F)cc2)c1C", "J774", "> 3330"]
]}

Assay J774, sample "COCCc1cc(-c2ccc(S(C)(=O)=O)cc2)n(-c2ccccc2)c1C" , Ratio IC50 read: > 2080

Form field Ratio IC50 for item "CCOCCc1cc(-c2ccc(S(C)(=O)=O)cc2)n(-c2ccccc2)c1C" on J774: > 6670

With J774 as the test system, "CCOC(=O)Cc1cc(-c2ccc(S(C)(=O)=O)cc2)n(-c2ccc(C(F)(F)F)cc2)c1C" showed Ratio IC50 of > 1600

J774 Ratio IC50 of "CCOCCc1cc(-c2ccc(S(C)(=O)=O)cc2)n(-c2ccc(F)cc2)c1C" is > 2130

###

Molecular target: Prostaglandin G/H synthase 2 (Mus musculus)
Sequence (Q05769 whole entry): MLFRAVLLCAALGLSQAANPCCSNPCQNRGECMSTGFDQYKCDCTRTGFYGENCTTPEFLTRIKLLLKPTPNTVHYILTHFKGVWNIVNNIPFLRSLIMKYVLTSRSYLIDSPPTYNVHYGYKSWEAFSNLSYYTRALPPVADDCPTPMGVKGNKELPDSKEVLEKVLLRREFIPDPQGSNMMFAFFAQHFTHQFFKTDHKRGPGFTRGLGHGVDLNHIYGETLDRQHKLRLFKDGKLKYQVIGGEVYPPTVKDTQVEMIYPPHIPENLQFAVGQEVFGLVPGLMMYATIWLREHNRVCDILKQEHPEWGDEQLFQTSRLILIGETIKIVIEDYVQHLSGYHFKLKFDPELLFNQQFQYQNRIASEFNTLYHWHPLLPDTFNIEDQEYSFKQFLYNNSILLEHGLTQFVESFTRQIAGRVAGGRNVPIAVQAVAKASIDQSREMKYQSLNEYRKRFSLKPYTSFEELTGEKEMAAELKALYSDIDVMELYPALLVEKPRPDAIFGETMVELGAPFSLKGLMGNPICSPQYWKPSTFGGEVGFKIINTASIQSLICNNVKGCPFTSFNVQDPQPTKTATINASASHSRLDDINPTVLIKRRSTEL
Experiment: Inhibition of mouse COX2 in LPS-stimulated mouse J774 cells assessed as PGE2 production by radioimmunoassay
pIC50: −log10 of the molar value.
Measured endpoint: pIC50

Answered cases to consult:
{"columns": ["Compound structure", "pIC50"],
 "data": [
  ["CCCOCCc1cc(-c2ccc(S(C)(=O)=O)cc2)n(-c2ccc(C(F)(F)F)cc2)c1C", 6.96],
  ["COCCc1cc(-c2ccc(S(C)(=O)=O)cc2)n(-c2ccccc2)c1C", 7.32],
  ["CCCOCCc1cc(-c2ccc(S(C)(=O)=O)cc2)n(-c2ccc(F)cc2)c1C", 7.52],
  ["COCCc1cc(-c2ccc(S(C)(=O)=O)cc2)n(-c2ccc(F)cc2)c1C", 7.74],
  ["COCCc1cc(-c2ccc(S(C)(=O)=O)cc2)n(-c2ccc(C(F)(F)F)cc2)c1C", 7.31]
]}

[1] CCCOCCc1cc(-c2ccc(S(C)(=O)=O)cc2)n(-c2ccccc2)c1C
[2] CCOCCc1cc(-c2ccc(S(C)(=O)=O)cc2)n(-c2ccc(C(F)(F)F)cc2)c1C
[3] CCOCCc1cc(-c2ccc(S(C)(=O)=O)cc2)n(-c2ccc(F)cc2)c1C
Place the items in sequence of falling pIC50. Answer format: the labels, ordered as requested.
1, 3, 2
